target_system: Nav 1.5 (Homo sapiens (Human), UniProt Q14524)
Sequence (Q14524 whole entry): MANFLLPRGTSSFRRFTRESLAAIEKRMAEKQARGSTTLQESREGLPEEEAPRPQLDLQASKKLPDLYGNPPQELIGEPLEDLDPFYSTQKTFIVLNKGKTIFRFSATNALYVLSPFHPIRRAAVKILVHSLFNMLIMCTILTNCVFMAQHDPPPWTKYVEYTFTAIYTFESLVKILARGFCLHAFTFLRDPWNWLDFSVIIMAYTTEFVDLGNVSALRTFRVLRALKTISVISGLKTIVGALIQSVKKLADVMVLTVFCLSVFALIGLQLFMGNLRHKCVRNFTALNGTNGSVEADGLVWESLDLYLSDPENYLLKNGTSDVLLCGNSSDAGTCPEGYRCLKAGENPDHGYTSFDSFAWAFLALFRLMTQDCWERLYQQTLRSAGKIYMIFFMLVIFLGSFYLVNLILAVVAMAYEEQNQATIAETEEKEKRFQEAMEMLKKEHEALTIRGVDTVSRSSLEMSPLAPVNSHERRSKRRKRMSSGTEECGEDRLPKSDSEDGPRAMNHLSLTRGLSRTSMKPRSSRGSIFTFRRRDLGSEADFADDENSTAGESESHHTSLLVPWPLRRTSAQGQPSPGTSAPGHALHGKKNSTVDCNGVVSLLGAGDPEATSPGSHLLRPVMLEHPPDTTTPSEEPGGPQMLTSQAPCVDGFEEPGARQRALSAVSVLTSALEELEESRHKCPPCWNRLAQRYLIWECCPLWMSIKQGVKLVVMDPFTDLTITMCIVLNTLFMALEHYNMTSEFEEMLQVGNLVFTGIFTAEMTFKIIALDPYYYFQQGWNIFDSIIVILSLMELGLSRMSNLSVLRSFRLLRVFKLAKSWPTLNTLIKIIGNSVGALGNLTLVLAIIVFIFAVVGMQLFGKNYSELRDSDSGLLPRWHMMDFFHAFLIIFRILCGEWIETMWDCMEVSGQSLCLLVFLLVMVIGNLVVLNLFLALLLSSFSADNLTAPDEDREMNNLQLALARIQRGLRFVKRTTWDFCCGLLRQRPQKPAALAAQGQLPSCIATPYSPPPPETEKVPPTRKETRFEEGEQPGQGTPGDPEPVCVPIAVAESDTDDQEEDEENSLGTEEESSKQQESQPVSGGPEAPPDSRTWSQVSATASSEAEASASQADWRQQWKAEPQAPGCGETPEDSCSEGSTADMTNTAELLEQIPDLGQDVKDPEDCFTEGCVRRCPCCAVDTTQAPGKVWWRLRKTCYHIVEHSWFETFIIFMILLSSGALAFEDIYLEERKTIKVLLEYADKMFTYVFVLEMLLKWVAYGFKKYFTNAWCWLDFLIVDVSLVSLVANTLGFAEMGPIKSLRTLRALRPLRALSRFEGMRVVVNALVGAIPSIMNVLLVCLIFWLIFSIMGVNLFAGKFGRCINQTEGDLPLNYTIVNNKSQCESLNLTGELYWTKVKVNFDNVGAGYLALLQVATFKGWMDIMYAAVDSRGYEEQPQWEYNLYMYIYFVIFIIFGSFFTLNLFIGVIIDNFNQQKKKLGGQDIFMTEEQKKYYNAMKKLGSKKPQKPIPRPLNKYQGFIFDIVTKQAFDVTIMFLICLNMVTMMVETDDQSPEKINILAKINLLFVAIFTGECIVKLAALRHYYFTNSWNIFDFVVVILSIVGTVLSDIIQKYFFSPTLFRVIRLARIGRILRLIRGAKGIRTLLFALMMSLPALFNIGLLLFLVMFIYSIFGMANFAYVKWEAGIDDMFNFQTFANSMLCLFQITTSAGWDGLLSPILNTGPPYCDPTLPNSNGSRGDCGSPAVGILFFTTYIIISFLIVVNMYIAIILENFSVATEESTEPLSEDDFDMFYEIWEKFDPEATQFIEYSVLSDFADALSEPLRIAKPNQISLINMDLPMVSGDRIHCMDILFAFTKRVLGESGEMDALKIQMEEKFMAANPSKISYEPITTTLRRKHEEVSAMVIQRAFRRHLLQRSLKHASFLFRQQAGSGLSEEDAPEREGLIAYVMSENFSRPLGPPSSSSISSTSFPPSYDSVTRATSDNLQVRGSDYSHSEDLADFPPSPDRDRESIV
test_description: Inhibition of sodium channels, Red Membrane Potential Dye FLIPR assay, veratridine depolarization
Format: cell-based
measurement_parameters: HEK-293 cells overexpressing Nav 1.5; HEK-293 cells overexpressing the channel; 10 μM
parameter: inhibition at 10 µM (%)
State the answer as a number, implicitly in %.

Query block: API: value(readout= inhibition at 10 µM, system= Nav 1.5 (Homo sapiens (Human), UniProt Q14524), query= O=S(=O)(Nc1cccnn1)c1ccc2c(c1)OCC[C@@H]2c1ccc(C(F)(F)F)cc1CCF (racemic) )
Result block: 36

Query block: API: value(readout= inhibition at 10 µM, system= Nav 1.5 (Homo sapiens (Human), UniProt Q14524), query= O=S(=O)(Nc1ccncn1)c1ccc2c(c1)OCC[C@@H]2c1ccc(C(F)(F)F)cc1-c1nccs1 (racemic) )
Result block: 51

Query block: API: value(readout= inhibition at 10 µM, system= Nav 1.5 (Homo sapiens (Human), UniProt Q14524), query= COCCc1cc(C(F)(F)F)ccc1[C@H]1CCOc2cc(S(=O)(=O)Nc3ncc(F)cn3)ccc21 (racemic) )
Result block: 33

Query block: API: value(readout= inhibition at 10 µM, system= Nav 1.5 (Homo sapiens (Human), UniProt Q14524), query= O=C1OCCN1c1cc(C(F)(F)F)ccc1[C@H]1CCOc2cc(S(=O)(=O)Nc3cccnn3)ccc21 (racemic) )
Result block: 28

Query block: API: value(readout= inhibition at 10 µM, system= Nav 1.5 (Homo sapiens (Human), UniProt Q14524), query= O=S(=O)(Nc1cccnn1)c1ccc2c(c1)OCC[C@@H]2c1ccc(C(F)(F)F)cc1N1CCOCC1 (racemic) )
Result block: 54

Query block: API: value(readout= inhibition at 10 µM, system= Nav 1.5 (Homo sapiens (Human), UniProt Q14524), query= COCCOc1cc(C(F)(F)F)ccc1[C@H]1CCOc2cc(S(=O)(=O)Nc3cccc(F)n3)ccc21 (racemic) )
Result block: 62

Query block: API: value(readout= inhibition at 10 µM, system= Nav 1.5 (Homo sapiens (Human), UniProt Q14524), query= O=S(=O)(Nc1cccc(F)n1)c1ccc2c(c1)OCC[C@@H]2c1ccc(C(F)(F)F)cc1OC1COC1 (racemic) )
Result block: 40

Query block: API: value(readout= inhibition at 10 µM, system= Nav 1.5 (Homo sapiens (Human), UniProt Q14524), query= O=S(=O)(Nc1ncc(F)cn1)c1ccc2c(c1)OCC[C@@H]2c1ccc(C(F)(F)F)cc1CCCCF (racemic) )
Result block: 81

Query block: API: value(readout= inhibition at 10 µM, system= Nav 1.5 (Homo sapiens (Human), UniProt Q14524), query= O=S(=O)(Nc1cccnn1)c1ccc2c(c1)OCC[C@@H]2c1ccc(C(F)(F)F)cc1O[C@H]1CCOC1 (racemic) )
Result block: 67

Query block: API: value(readout= inhibition at 10 µM, system= Nav 1.5 (Homo sapiens (Human), UniProt Q14524), query= Cc1nc(-c2cc(C(F)(F)F)ccc2[C@H]2CCOc3cc(S(=O)(=O)Nc4ncc(F)cn4)ccc32)ccc1F (racemic) )
Result block: 33

Query block: API: value(readout= inhibition at 10 µM, system= Nav 1.5 (Homo sapiens (Human), UniProt Q14524), query= COCCOc1cc(C(F)(F)F)ccc1[C@H]1CCOc2cc(S(=O)(=O)Nc3ccncn3)ccc21 (racemic) )
Result block: 37

Query block: API: value(readout= inhibition at 10 µM, system= Nav 1.5 (Homo sapiens (Human), UniProt Q14524), query= Cc1nc(-c2cc(C(F)(F)F)ccc2[C@H]2CCOc3cc(S(=O)(=O)Nc4ncccn4)ccc32)ccc1F (racemic) )
Result block: 73

Query block: API: value(readout= inhibition at 10 µM, system= Nav 1.5 (Homo sapiens (Human), UniProt Q14524), query= COCCCCc1cc(C(F)(F)F)ccc1[C@H]1CCOc2cc(S(=O)(=O)Nc3ccncn3)ccc21 (racemic) )
Result block: 58

Query block: API: value(readout= inhibition at 10 µM, system= Nav 1.5 (Homo sapiens (Human), UniProt Q14524), query= O=S(=O)(Nc1ncccn1)c1ccc2c(c1)OCC[C@@H]2c1ccc(C(F)(F)F)cc1-c1nccs1 (racemic) )
Result block: 56

Query block: API: value(readout= inhibition at 10 µM, system= Nav 1.5 (Homo sapiens (Human), UniProt Q14524), query= O=S(=O)(Nc1ncc(F)cn1)c1ccc2c(c1)OCC[C@@H]2c1ccc(C(F)(F)F)cc1O[C@H]1CCOC1 (racemic) )
Result block: 30

Query block: API: value(readout= inhibition at 10 µM, system= Nav 1.5 (Homo sapiens (Human), UniProt Q14524), query= O=S(=O)(Nc1cccc(F)n1)c1ccc2c(c1)OCC[C@@H]2c1ccc(C(F)(F)F)cc1-c1nccs1 (racemic) )
Result block: 70

Query block: API: value(readout= inhibition at 10 µM, system= Nav 1.5 (Homo sapiens (Human), UniProt Q14524), query= COCCOc1cc(C(F)(F)F)ccc1[C@H]1CCOc2cc(S(=O)(=O)Nc3cccnn3)ccc21 (racemic) )
Result block: 55

Query block: API: value(readout= inhibition at 10 µM, system= Nav 1.5 (Homo sapiens (Human), UniProt Q14524), query= O=S(=O)(Nc1cccnn1)c1ccc2c(c1)OCC[C@@H]2c1ccc(C(F)(F)F)cc1-c1nccs1 (racemic) )
Result block: 74
